- protocol.text: Selectivity index, ratio of EC50 for human RBC to MIC for methicillin resistant Staphylococcus epidermidis RP62A ATCC 35984/CCUG 31568
- Type: toxicity
- condition: human red blood cells (RBC), read-out: Selectivity Index
Flag rule - selectivity ratio less than 10 flags Yes; the remaining entries get No.

Solved entries (count: 6):
- structure.as.smiles: "CC(C)(C)c1cc(C(C)(C)C)cc(S(=O)(=O)NCc2ccc(C(=O)NCCN)cc2)c1.Cl"
  group.label: "Yes"
- structure.as.smiles: "CN(c1ccc(C(=O)NCCCNC(=N)N)cc1)S(=O)(=O)c1cc(C(C)(C)C)cc(C(C)(C)C)c1.Cl"
  group.label: "No"
- structure.as.smiles: "COc1c(C(C)(C)C)cc(S(=O)(=O)Nc2ccc(C(=O)NCCNC(=N)N)cc2)cc1C(C)(C)C.Cl"
  group.label: "No"
- structure.as.smiles: "CC(C)(C)c1cc(C(C)(C)C)cc(S(=O)(=O)Nc2ccc(C(=O)NCCN)cc2)c1.Cl"
  group.label: "Yes"
- structure.as.smiles: "Cc1cc(C(=O)NCCNC(=N)N)ccc1NS(=O)(=O)c1cc(C(C)(C)C)cc(C(C)(C)C)c1.Cl"
  group.label: "No"
- structure.as.smiles: "CN(c1ccc(C(=O)NCCCN)cc1)S(=O)(=O)c1cc(C(C)(C)C)cc(C(C)(C)C)c1.Cl"
  group.label: "Yes"

Please turn your attention to the following entry.
Lab note: selectivity ratio threshold 10. Does this molecule come in strictly under it? `CC(C)(C)c1cc(C(C)(C)C)cc(S(=O)(=O)Nc2ccc(CC(=O)NCCNC(=N)N)cc2)c1.Cl` No

Reference for the values: ChEMBL document CHEMBL4152356
